# Test system: SK-MEL-5
# experimentNotes: NCI tumour cell line growth inhibition, 48 h
Active and inactive are the calls of the source. Rule as the data show it: active = GI50 up to about 1.1 µM and inactive = higher.
Outcome codes: t for active, f for inactive

compoundString: N#Cc1c(O)nc2nn3c4ccc5ccccc5c4nnc3c2c1-c1ccc(Cl)cc1
assignedCategory: f
--
compoundString: O=c1c2ccccc2nc(-c2ccccc2)n1NC(=S)Nc1cccc(Cl)c1
assignedCategory: f
--
compoundString: O=C(N/N=C\c1ccc2ccccc2c1)Nc1ccc([N+](=O)[O-])cc1
assignedCategory: f
--
compoundString: NC(=S)N/N=C\c1ccc(OCc2cccc(COc3ccc(/C=N/NC(N)=S)cc3)n2)cc1
assignedCategory: f
--
compoundString: Cn1cc2c(n1)c(N/N=C/c1ccccc1)nn1nnnc21
assignedCategory: f
--
compoundString: CCOC(=O)c1cn2c(n1)sc1cc(Cl)ccc12
assignedCategory: f
--
compoundString: CC[C@@]1(O)C(=O)OCc2c1cc1n(c2=O)Cc2c-1nc1ccccc1c2/C=N\c1ccc(N[C@@H]2c3cc4c(cc3[C@@H](c3cc(OC)c(O)c(OC)c3)[C@H]3C(=O)OC[C@@H]32)OCO4)cc1
assignedCategory: t
--
compoundString: CN(C)CCCN1c2ccccc2C(C)(C)c2ccccc21
assignedCategory: f
--
compoundString: COc1ccccc1/N=N/C(=N/NC(=O)c1ccc(C)cc1)c1ccc(N(CCC#N)CCC#N)cc1OC
assignedCategory: f
